Can you tell me TGI for the items I'm about to list?
# System: SF-539 CNS
# MEASUREMENT_DESCRIPTION: NCI tumour cell line growth inhibition, 48 h

Solved cases (10 shown):
O=[N+]([O-])c1cc(Br)cc2cc(Cl)cnc12 : > 100 µM
O=C([CH-]C(=O)c1ccccc1)c1ccccc1.[C-]#[O+].[C-]#[O+].[Ir] : > 100 µM
COc1ccccc1-n1cnc(N)c1C(=O)c1cc(OC)c(OC)c(OC)c1 : 9.12 µM
C=C1C(=O)OC2C1CCC(=C)C1CC(O)C(=C)C12 (stereo unspecified) : 35.2 µM
O=C(O)c1cc(N=Nc2ccc([N+](=O)[O-])cc2)ccc1O : > 100 µM
O=C(NC1CCN(Cc2ccccc2)CC1)c1cc(-c2cccnc2)nc2ccc(Cl)cc12 : 24.2 µM
O=C1Cc2c(-c3ccccc3)cc(-c3ccccc3)nc2-c2ccccc2N1 : 34.4 µM
Cc1cc(OCc2nc(N)nc(N)c2-c2ccc(Cl)c(Cl)c2)ccc1[N+](=O)[O-] : 22.5 µM
Cc1cc(F)c(C(=O)Nc2cccc(-c3nncn3C(C)C)n2)cc1-n1cnc(C2CC2)c1 : 34.4 µM
CCCCCC/C=C/C#CCCCCCCCC(=O)O : > 100 µM

// next item, TGI requested
**Query** If you can, please state the reported TGI value of OC1(c2ccccc2)CC2CCC(C1)N2CCCC(O)(c1ccccc1)c1ccccc1 (stereo unspecified) .
**Result** 16.8 µM

---

# Test system: NCI-H522 lung
# MEASUREMENT_DESCRIPTION: NCI tumour cell line growth inhibition, 48 h
Can you tell me TGI for the items I'm about to list?

Consider the following items and state reported TGI for each.
1. Oc1ccc(NC(=S)Nc2ccccc2)cc1
2. CCOC(=O)c1c(N2CCCC2)[nH]c(=O)c(C(c2c(O)c(C(=O)OCC)c(N3CCCC3)[nH]c2=O)C(C)C)c1O
3. Cc1ccc(S(=O)(=O)NC(=O)Nc2c(S(N)(=O)=O)cc(S(N)(=O)=O)c(Cl)c2Cl)cc1

**Result**
1. > 100 µM
2. > 100 µM
3. > 100 µM

---

# Tested on: HCC-2998 colon
# MEASUREMENT_DESCRIPTION: NCI tumour cell line growth inhibition, 48 h; in the data active means GI50 below about 0.43 µM; inactive means the rest
Choose one outcome from this list and give only that: t for active, f for inactive

**Query** Hello, I am checking results. What call was entered for CNC(=O)c1cc(Oc2ccc3nc(NC(=O)Nc4ccc(CN5CCOCC5)c(C(F)(F)F)c4)sc3c2)ccn1 ?
**Result** f

---

Can you tell me TGI for the items I'm about to list?
# Tested on: SNB-19 CNS
# MEASUREMENT_DESCRIPTION: NCI tumour cell line growth inhibition, 48 h

Solved cases (5 shown):
COc1ccc(-c2nc(-c3ccc(OC)cc3)n(-c3ccccc3)n2)cc1 : > 100 µM
Oc1ccc2ccccc2c1CCc1c(O)ccc2ccccc12 : 32.4 µM
CC1(CO)C(O)CCC2(C)C1CCC1CC3CC12CCC3(O)CO (centres undefined) : > 100 µM
CC(C)C[C@H](CC(=O)O)C(=O)N[C@@H](Cc1c[nH]c2ccccc12)C(=O)N[C@@H](C)c1ccccc1 : > 25 µM
CN(C)c1ccc(/C=C/C(=O)c2cc(C(C)(C)C)c(O)c(C(C)(C)C)c2)cc1 : > 100 µM

Consider the following items and state reported TGI for each.
1. Cc1nnc(C[C@@H]2C=C(c3ccc(Cl)cc3)c3ccccc3-n3c(C)nnc32)o1
2. COC(=O)C1OC(O[C@H]2CC[C@]3(C)[C@H]4CC=C5[C@@H]6CC(C)(C)CC[C@]6(C(=O)OC)CC[C@@]5(C)[C@]4(C)CC[C@H]3C2(C)C)C(O)C(O)C1O (some centres undefined)
3. C[C@H]1CCC/C=C/C2CC(OC(=O)CN(C)C)CC2C(OC(=O)CN(C)C)/C=C/C(=O)O1 (some centres undefined)
4. COc1ccc2[nH]c3cc4c(=O)c5cc(OC)ccc5[nH]c4cc3c(=O)c2c1

**Result**
["> 100 µM", "31.1 µM", "> 100 µM", "> 100 µM"]
